Reference for the values: patent US7045532B2

Item-by-item account of pKi
Target: Carboxypeptidase A (Bos taurus)
Sequence (P00730 111-419): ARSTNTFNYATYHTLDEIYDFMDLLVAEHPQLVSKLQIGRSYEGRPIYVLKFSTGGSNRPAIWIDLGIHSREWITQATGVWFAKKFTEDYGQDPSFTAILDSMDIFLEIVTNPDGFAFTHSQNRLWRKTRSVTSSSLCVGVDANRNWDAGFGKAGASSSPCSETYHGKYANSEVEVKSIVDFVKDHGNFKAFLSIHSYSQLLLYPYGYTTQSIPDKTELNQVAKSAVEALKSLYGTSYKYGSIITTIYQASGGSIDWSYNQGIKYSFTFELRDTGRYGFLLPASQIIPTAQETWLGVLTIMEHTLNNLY
Test: Carboxypeptidase A activity assay
Format: biochemical
Details: Ki class; compounds tested in 5% DMSO, 12 concentrations
pKi: −log10 of the molar value.

compound: CCCC(N[C@@H](Cc1c[nH]cn1)C(=O)O)C(=O)O (stereo in doubt) [AF]
pKi: < 4.30
//
compound: CC(C)CC(N[C@@H](Cc1cn(Cc2ccccc2)cn1)C(=O)O)C(=O)O (single isomer, unassigned) [DL]
pKi: < 4.30
//
compound: CC(C)CC(N[C@@H](Cc1c[nH]cn1)C(N)=O)C(=O)O (single isomer, unassigned) [EV]
pKi: < 4.30
//
compound: O=C(O)[C@H](CC1CC1)N[C@H](CCc1ccccc1)C(=O)O [DE]
pKi: < 4.30
//
compound: CC(C)CC(N[C@@H](Cc1cncn1Cc1ccccc1)C(=O)O)C(=O)O (single isomer, unassigned) [FA]
pKi: < 4.30
//
compound: CC(C)CC(N[C@H](Cc1ccccn1)C(=O)O)C(=O)O (stereo in doubt) [BZ]
pKi: < 4.30
//
compound: CC(C)C[C@@H](N[C@H](Cc1cscn1)C(=O)O)C(=O)O [CO]
pKi: < 4.30
//
compound: O=C(O)C(CO)N[C@@H](CCc1ccccc1)C(=O)O (some centres unmarked) [AB]
pKi: < 4.30
//
compound: C#CCC(N[C@@H](C(=O)O)c1ccccc1)C(=O)O (some centres unmarked) [BN]
pKi: < 4.30
//
compound: O=C(O)C(Cc1ccccc1)N[C@@H](Cc1cnc[nH]1)C(=O)O (some centres unmarked) [EQ]
pKi: 4.30 to 5.00
//
compound: CC(C)CC(N[C@@H](Cc1c[nH]cn1)C(=O)O)C(=O)O (single isomer, unassigned) [BL]
pKi: < 4.30
//
compound: CCCCC(N[C@@H](Cc1cncn1Cc1ccccc1)C(=O)O)C(=O)O (single isomer, unassigned) [FZ]
pKi: < 4.30
//
compound: O=C(O)C(Cc1ccccc1)N[C@@H](Cc1cnc[nH]1)C(=O)O (some centres unmarked) [EK]
pKi: 4.30 to 5.00
//
compound: CC(C)CC(N[C@@H](Cc1cn(-c2ccc([N+](=O)[O-])cc2[N+](=O)[O-])cn1)C(=O)O)C(=O)O (stereo in doubt) [EG]
pKi: < 4.30
//
compound: CC(C)CC(N[C@@H](Cc1cncn1COCc1ccccc1)C(=O)O)C(=O)O (single isomer, unassigned) [FH]
pKi: < 4.30
//
compound: CC(C)CC(N[C@@H](Cc1cncn1Cc1ccc(Cl)cc1)C(=O)O)C(=O)O (single isomer, unassigned) [GN]
pKi: < 4.30
//
compound: CC(C)C[C@H](N[C@@H](C(=O)O)c1ccccc1)C(=O)O [R]
pKi: < 4.30
